assay: chemical genetic growth profiling, strain panel (AID 1159580);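 also: tested at 20 µM; growth read once vehicle control cultures reached saturation at 30 °C; 1 = growth at the plate median or of vehicle wells; lower values mean less growth of the strain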; details: S. cerevisiae deletion strains, growth OD, locus YOR270C, strain vph1, hits give low values
Hit rate of the full screen: of about 5,500 compounds, about 2,000 (36%) were called active. Another 18% or so got no clear call; they are omitted. This is one part of the list.
Strictly below 1 in normalized growth: 1 (yes). Otherwise: 0 (no).

Example entries and their recorded answers appear below.
Query string: For CC[N+]1(C)CCCC(OC(=O)C(O)(c2ccccc2)c2ccccc2)C1 (stereo unspecified) , is the recorded normalized growth below the cut-off of 1?
Result string: 0 (no)

Query string: For Cc1cc2cc3c(C)cc(=O)oc3c(C)c2o1 , is the recorded normalized growth below the cut-off of 1?
Result string: 1 (yes)

Query string: For O=c1c2ccccc2oc2ccccc12 , is the recorded normalized growth below the cut-off of 1?
Result string: 1 (yes)

Query string: For O=C(O)c1cc(=O)c2ccccc2o1 , is the recorded normalized growth below the cut-off of 1?
Result string: 1 (yes)

Okay, now this compound:
Query string: For CCCCOc1cc(CC2CNC(=O)N2)ccc1OC (stereo unspecified) , is the recorded normalized growth below the cut-off of 1?
Result string: 1 (yes)

----------
assay: chemical genetic growth profiling, strain panel (AID 1159580);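 also: tested at 20 µM; growth read once vehicle control cultures reached saturation at 30 °C; 1 = growth at the plate median or of vehicle wells; lower values mean less growth of the strain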; details: S. cerevisiae deletion strains, growth OD, locus YOR001W, strain rrp6, hits give low values
About 2,000 (36%) of roughly 5,500 compounds were called active. Roughly 18% stayed inconclusive and do not appear here. Some of the results follow.
observed property: normalized growth
No unit in the answer, please; the number alone is enough.

Query string: Entry CNCCC=C1c2ccccc2CCc2ccccc21 : reported normalized growth = ?
Result string: 0.988

Query string: Entry C=C1C2CC[C@@]3(C)[C@H](c4ccoc4)OC(=O)C[C@]13O[C@H]1CC(=O)C(C)(C)[C@H](C(O)C(=O)OC)[C@@]21C (some centres undefined) : reported normalized growth = ?
Result string: 0.953

Query string: Entry O=C1CCc2cc(OCCCCc3nnnn3C3CCCCC3)ccc2N1 : reported normalized growth = ?
Result string: 0.992

Query string: Entry CCn1cc(C(=O)O)c(=O)c2cc(F)c(N3CCNCC3)cc21 : reported normalized growth = ?
Result string: 0.94

Query string: Entry C[C@@H]1CC[C@@]2(OC1)OC1C(O)C3C4CC[C@H]5C[C@H](O[C@@H]6O[C@H](CO)[C@H](O[C@@H]7O[C@H](CO)[C@@H](O)[C@H](O[C@@H]8OC[C@@H](O)[C@H](O)[C@H]8O)[C@H]7O[C@@H]7O[C@H](CO)[C@H](O)[C@H](O[C@@H]8O[C@H](CO)[C@@H](O)[C@H](O)[C@H]8O)[C@H]7O)[C@H](O)[C@H]6O)[C@H](O)C[C@]5(C)C4CC[C@]3(C)C1[C@@H]2C (some centres undefined) : reported normalized growth = ?
Result string: 0.939

Query string: Entry O=c1c(-c2ccc(O)cc2)coc2cc(O)cc(O)c12 : reported normalized growth = ?
Result string: 1.01

Further cases:
Query string: Entry O=c1oc2ccccc2c(O)c1Cc1c(O)c2ccccc2oc1=O : reported normalized growth = ?
Result string: 0.997

Query string: Entry CN(C)CC/C=C1/c2ccccc2COc2ccccc21 : reported normalized growth = ?
Result string: 1.02

Query string: Entry Cc1cc2cc3c(C)cc(=O)oc3c(C)c2o1 : reported normalized growth = ?
Result string: 0.972

Query string: Entry CC(=O)N(O)CCCCCNC(=O)CCC(=O)N(O)CCCCCNC(=O)CCC(=O)N(O)CCCCCN : reported normalized growth = ?
Result string: 0.96

Query string: Entry O=c1c(-c2ccccc2)coc2cc(O)cc(O)c12 : reported normalized growth = ?
Result string: 0.964

Query string: Entry CC(C)(O)[C@@H]1CC[C@](C)([C@H]2[C@@H](O)C[C@@]3(C)C4C[C@H](O[C@@H]5O[C@H](CO)[C@@H](O)[C@H](O)[C@H]5O)C5C(C)(C)[C@@H](O[C@@H]6OC[C@@H](O)[C@H](O)[C@H]6O)CC[C@@]56C[C@@]46CC[C@]23C)O1 (some centres undefined) : reported normalized growth = ?
Result string: 0.972

Query string: Entry COc1ccc(-c2cc(=O)c3c(O)c(OC)c(OC)c(OC)c3o2)cc1 : reported normalized growth = ?
Result string: 0.998

Query string: Entry COc1ccc(-c2coc3cc(OC(C)=O)cc(OC(C)=O)c3c2=O)cc1 : reported normalized growth = ?
Result string: 0.971

Query string: Entry O=c1c2ccccc2oc2ccccc12 : reported normalized growth = ?
Result string: 0.88

Query string: Entry NCC(=O)CCC(=O)O : reported normalized growth = ?
Result string: 0.994

Query string: Entry CCN1CCN(c2cc3c(cc2F)c(=O)c(C(=O)O)cn3C2CC2)CC1 : reported normalized growth = ?
Result string: 1.01

Query string: Entry CC(=O)CC(c1ccccc1)c1c(O)c2ccccc2oc1=O (centres undefined) : reported normalized growth = ?
Result string: 1.02

Query string: Entry O=c1c(-c2cc(O)c(O)c(O)c2)coc2cc(O)c(O)c(O)c12 : reported normalized growth = ?
Result string: 0.949

----------
assay: chemical genetic growth profiling, strain panel (AID 1159580);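 also: tested at 20 µM; growth read once vehicle control cultures reached saturation at 30 °C; 1 = growth at the plate median or of vehicle wells; lower values mean less growth of the strain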; details: S. cerevisiae deletion strains, growth OD, locus YDR137W, strain rgp1, hits give low values
The whole screen tested about 5,500 compounds, of which about 2,000 (36%) were called active. Inconclusive results (about 18%) are left out. The list shows a part of the results.
Strictly below 0.9 in normalized growth: true. Otherwise: false.

Example entries and their recorded answers appear below.
Query string: For C/C(=C\C(=O)OCCCCCCCCC(=O)O)C[C@@H]1OC[C@H](C[C@@H]2O[C@H]2[C@@H](C)[C@H](C)O)[C@@H](O)[C@H]1O , is the recorded normalized growth below the cut-off of 0.9?
Result string: false

Query string: For CC(C(=O)O)[C@H]1CCC2C3CC=C4C[C@@H](O)CC[C@]4(C)C3CC[C@@]21C (some centres undefined) , is the recorded normalized growth below the cut-off of 0.9?
Result string: true

Query string: For CCC(/C=C/[C@@H](C)[C@H]1CCC2C3CC=C4C[C@@H](O)CC[C@]4(C)C3CC[C@@]21C)C(C)C (some centres undefined) , is the recorded normalized growth below the cut-off of 0.9?
Result string: false

Further cases:
Query string: For CC(=O)OCC(=O)[C@H]1CCC2C3CC=C4C[C@@H](O)CC[C@]4(C)C3CC[C@@]21C (some centres undefined) , is the recorded normalized growth below the cut-off of 0.9?
Result string: true

Query string: For CC1(C)O[C@@H]2CC3C4C[C@H](F)C5=CC(=O)C=C[C@]5(C)[C@@]4(F)[C@@H](O)C[C@]3(C)[C@]2(C(=O)CO)O1 (some centres undefined) , is the recorded normalized growth below the cut-off of 0.9?
Result string: false

Query string: For CC(=O)[C@H]1CCC2C3CC=C4C[C@@H](O)CC[C@]4(C)C3CC[C@@]21C (some centres undefined) , is the recorded normalized growth below the cut-off of 0.9?
Result string: true

Query string: For CC(C)(C)C(=O)C(Oc1ccc(Cl)cc1)n1cncn1 (centres undefined) , is the recorded normalized growth below the cut-off of 0.9?
Result string: true

Query string: For CC(=O)[C@H]1CCC2C3CC=C4C[C@@H](OC(=O)CCC(=O)O)CC[C@]4(C)C3CC[C@@]21C (some centres undefined) , is the recorded normalized growth below the cut-off of 0.9?
Result string: true

----------
experiment: chemical genetic growth profiling, strain panel (AID 1159580);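 also: tested at 20 µM; growth read once vehicle control cultures reached saturation at 30 °C; 1 = growth at the plate median or of vehicle wells; lower values mean less growth of the strain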; conditions: S. cerevisiae deletion strains, growth OD, locus YDL185W, strain tfp1, hits give low values
The whole screen tested about 5,500 compounds, of which about 2,000 (36%) were called active. Another 18% or so got no clear call; they are omitted. The list shows a part of the results.
observed property: normalized growth
No unit in the answer, please; the number alone is enough.

Query string: Entry COCCOC(=O)C1=C(C)NC(C)=C(C(=O)OC(C)C)C1c1cccc([N+](=O)[O-])c1 (stereo unspecified) : reported normalized growth = ?
Result string: 1.02

Query string: Entry CCN(CC)CCNc1ccc(CO)c2sc3ccccc3c(=O)c12 : reported normalized growth = ?
Result string: 1

Further cases:
Query string: Entry COc1cccc(-c2cc(=O)c3cc(OC)ccc3o2)c1 : reported normalized growth = ?
Result string: 1.09

Query string: Entry CC(=O)O[C@H]1C[C@@]2(C)[C@H](c3ccoc3)OC(=O)[C@H]3O[C@]32[C@@]2(C)C1[C@]1(C)C(C[C@H]2OC(C)=O)C(C)(C)[C@H](OC(C)=O)C[C@@H]1OC(C)=O (stereo partly specified) : reported normalized growth = ?
Result string: 0.953

Query string: Entry CC(=O)OC1CC2C(C)(C)CCCC2(C)C2CCC3(C)C(c4ccoc4)OC(=O)C4OC43C12C (stereo unspecified) : reported normalized growth = ?
Result string: 1.03

Query string: Entry C=CCc1ccccc1OCC(O)CNC(C)C (stereo unspecified) : reported normalized growth = ?
Result string: 1

Query string: Entry CC(=O)O[C@@H]1CC2C(C)(C)C(=O)CC[C@]2(C)C2CC[C@@]3(C)[C@H](c4ccoc4)OC(=O)C4OC43[C@@]21C (stereo partly specified) : reported normalized growth = ?
Result string: 1.01

Query string: Entry CC(=O)Oc1cc(OC(C)=O)c2c(=O)c(-c3ccccc3)coc2c1 : reported normalized growth = ?
Result string: 0.998

Query string: Entry COc1cc([C@@H]2c3cc4c(cc3C(O[C@@H]3O[C@@H]5CO[C@@H](c6cccs6)OC5[C@H](O)[C@H]3O)C3COC(=O)[C@@H]32)OCO4)cc(OC)c1O (stereo partly specified) : reported normalized growth = ?
Result string: 1.03

Query string: Entry O=C1CC[C@]23C=CC(=O)NCCCCNCCCNC(=O)/C=C/c4ccc(c2c4)O[C@@H]3C1 : reported normalized growth = ?
Result string: 0.993

Query string: Entry COc1ccc(-c2cc(=O)c3c(OC)cccc3o2)cc1 : reported normalized growth = ?
Result string: 1.02

Query string: Entry O=C1CCc2cc(OCCCCc3nnnn3C3CCCCC3)ccc2N1 : reported normalized growth = ?
Result string: 0.993

Query string: Entry CC(=O)Oc1cc(-c2coc3cc(OC(C)=O)c(OC(C)=O)c(OC(C)=O)c3c2=O)cc(OC(C)=O)c1OC(C)=O : reported normalized growth = ?
Result string: 0.978

Query string: Entry CC(C)Oc1ccc2c(=O)cc(-c3ccccc3)oc2c1 : reported normalized growth = ?
Result string: 0.423

Query string: Entry COC(=O)C1=C(C)NC(C)=C(C(=O)OC)C1c1ccccc1[N+](=O)[O-] : reported normalized growth = ?
Result string: 0.938

Query string: Entry CN1CCc2c(c3ccccc3n2Cc2ccccc2)C1 : reported normalized growth = ?
Result string: 1.01

Query string: Entry COc1c2c(cc3c1OCO3)CC[N+](C)=C2 : reported normalized growth = ?
Result string: 1.01

Query string: Entry COc1cccc(-c2cc(=O)c3ccc(OC)cc3o2)c1 : reported normalized growth = ?
Result string: 0.978

Measured values drawn from PubChem BioAssay AID1159580 for this set.
